target system: UniProt:P95160
test summary: NADH-tNAD^+ transhydrogenase activity of soluble Mtb NDH-2
Type: biochemical
measurement setup: read-out: Ki″^NAD^+; transhydrogenase reaction; tNAD^+ varied, 0.2 mM NADH (Figure 4B), competitive
value kind: Ki (µM)
Give the value in µM but do not write µM after it.

Lookup: For NC(=O)c1ccc[n+]([C@@H]2O[C@H](COP(=O)([O-])OP(=O)(O)OC[C@H]3O[C@@H](n4cnc5c(N)ncnc54)[C@H](O)[C@@H]3O)[C@@H](O)[C@H]2O)c1 [NAD^+] , write its Ki.
Found: 30

###

target system: Mtb NDH-2 (Mycobacterium tuberculosis, UniProt P95160)
Sequence (P95160 whole entry): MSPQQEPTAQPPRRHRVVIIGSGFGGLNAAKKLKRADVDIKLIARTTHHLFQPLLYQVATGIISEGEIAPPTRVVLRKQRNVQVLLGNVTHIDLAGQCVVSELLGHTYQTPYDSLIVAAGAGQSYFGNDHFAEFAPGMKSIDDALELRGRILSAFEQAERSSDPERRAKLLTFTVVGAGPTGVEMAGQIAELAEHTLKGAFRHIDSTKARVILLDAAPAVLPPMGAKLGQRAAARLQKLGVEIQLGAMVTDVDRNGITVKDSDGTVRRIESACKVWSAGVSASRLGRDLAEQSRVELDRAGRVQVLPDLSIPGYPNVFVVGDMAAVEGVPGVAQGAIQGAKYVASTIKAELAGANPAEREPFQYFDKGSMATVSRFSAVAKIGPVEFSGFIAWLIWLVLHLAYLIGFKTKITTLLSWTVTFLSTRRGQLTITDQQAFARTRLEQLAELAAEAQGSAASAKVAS
test summary: NADH-tNAD^+ transhydrogenase activity of soluble Mtb NDH-2
Assay type: biochemical
measurement setup: read-out: apparent Ki (single discrete binding site, eq 6); inhibition of transhydrogenase activity; roughly estimated; 0.2 mM NADH, 0.2 mM tNAD^+
value kind: pKi
Here pKi is given on a logarithmic scale as minus log10 of the concentration in mol/L.

cpd smiles: COc1c(O)c(C)c(C/C=C(\C)CCC=C(C)C)c(O)c1OC
result: 5.52

Lookup: Recall and state the measured pKi for "COc1c(O)c(C)c(CC=C(C)C)c(O)c1OC" .
Found: 4.10
